The values you see were collected from patent US11278492B2.

assay_name: Phase 1 clinical trial, plasma olanzapine pharmacokinetics
assay_context: human, in vivo, inhaled or intranasal
metric: Tmax

Ask | // Tmax lookup, key: "Cc1cc2c(s1)Nc1ccccc1N=C2N1CCN(C)CC1"
Reply | 9.6 to 10.2 min

###

assay_name: Phase 1 clinical trial, plasma olanzapine pharmacokinetics
assay_context: human, in vivo, im, 5 mg
metric: Tmax

Ask | // Tmax lookup, key: "Cc1cc2c(s1)Nc1ccccc1N=C2N1CCN(C)CC1"
Reply | 19.8 to 21.6 min

###

assay_name: Phase 1 clinical trial, plasma olanzapine pharmacokinetics
assay_context: human, in vivo, inhaled or intranasal, 15 mg
metric: Cmax

Ask | // Cmax lookup, key: "Cc1cc2c(s1)Nc1ccccc1N=C2N1CCN(C)CC1"
Reply | ≥ 30 ng/mL
